tested on: MCF7 breast; assay: NCI tumour cell line growth inhibition, 48 h
// reported TGI per item
The response must be a number in µM with no trailing unit.

Study these solved cases before continuing.
CCOc1cc(NC(C)=O)ccc1C(=O)NN1C(=O)C(Cl)C1c1ccco1 (stereo not given)
26.8
Cc1nc(-c2ccc(N=Cc3ccc(N(CCOS(C)(=O)=O)CCOS(C)(=O)=O)cc3C)cc2)cs1
53.6
Cc1cc(O)c(C(C)C)cc1C1(c2cc(C(C)C)c(O)cc2C)OC(=O)c2ccccc21
3.6

Look up TGI: CC(C)=CCC/C(C)=C/CC/C(C)=C/CC/C=C(\C)CC/C=C(\C)CCC(=O)Nc1ccn(C2OC(CO)C(O)C2(F)F)c(=O)n1 (stereo not given)
4.34
